Human CD14+ monocytes bioassay IC50 overview
target: human c-fms, full length, on cells (human, UniProt P07333 20-972); assay: cell-based or functional assay
Sequence (P07333 20-972): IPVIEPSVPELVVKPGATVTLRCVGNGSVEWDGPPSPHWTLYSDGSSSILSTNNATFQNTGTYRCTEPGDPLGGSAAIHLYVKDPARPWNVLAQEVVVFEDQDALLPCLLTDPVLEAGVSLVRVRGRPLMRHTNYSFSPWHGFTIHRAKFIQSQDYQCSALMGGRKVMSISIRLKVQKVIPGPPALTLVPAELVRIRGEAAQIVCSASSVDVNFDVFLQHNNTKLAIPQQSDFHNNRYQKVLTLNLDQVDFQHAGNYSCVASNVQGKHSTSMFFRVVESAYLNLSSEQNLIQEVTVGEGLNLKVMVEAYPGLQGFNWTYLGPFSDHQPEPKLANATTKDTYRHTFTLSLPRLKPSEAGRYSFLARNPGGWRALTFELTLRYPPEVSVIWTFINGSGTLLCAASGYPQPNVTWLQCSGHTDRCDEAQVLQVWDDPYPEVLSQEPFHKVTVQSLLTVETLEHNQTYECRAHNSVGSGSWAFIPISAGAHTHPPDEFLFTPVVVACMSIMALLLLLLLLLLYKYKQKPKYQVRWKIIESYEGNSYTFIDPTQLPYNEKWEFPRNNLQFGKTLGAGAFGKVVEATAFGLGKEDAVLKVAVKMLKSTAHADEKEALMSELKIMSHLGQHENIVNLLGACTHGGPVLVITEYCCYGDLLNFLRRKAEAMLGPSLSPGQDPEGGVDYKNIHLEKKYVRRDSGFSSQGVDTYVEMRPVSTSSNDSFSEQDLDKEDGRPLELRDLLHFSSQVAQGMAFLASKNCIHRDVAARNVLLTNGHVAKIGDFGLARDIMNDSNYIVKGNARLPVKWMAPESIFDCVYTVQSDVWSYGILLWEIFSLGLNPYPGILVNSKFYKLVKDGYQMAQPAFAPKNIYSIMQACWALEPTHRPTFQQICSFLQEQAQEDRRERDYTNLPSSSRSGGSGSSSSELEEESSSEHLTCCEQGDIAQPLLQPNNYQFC
quantity.kind: Human CD14+ monocytes bioassay IC50 (nM)

anti-c-fms hybridoma antibody 1.64 (antibody, IgG1, V domains shown, Hybridoma IgG1 (cohort 1); also called 1.64.1; 1.64.2) VH: EVQLVESGGGLVQPGGSLRLSCAASGFTFSSYDMHWVRQATGKGLEWVSGIGTAGDTYYPGSVKGRFNISRENAKNSLYLQMNSLRAGDTAVYYCAREGSWYGFDYWGQGTLVTVSS VL: EIVLTQSPGTLSLSPGERATLSCRASQSVSSGYLAYLAWYQQKPGQAPRLLIYGASSTATGIPDRFSGSGSGTDFTLTISRLEPEDFAVYYCQQYGSSPITFGQGTRLEIK ... 0.013
anti-c-fms hybridoma antibody 2.508 (antibody, IgG2, V domains shown, Hybridoma IgG2 (cohort 2); also called 2.508.1; 2.508.2) VH: QVQLVQSGAEVKKPGASVKVSCKVSGYTLTELSMHWVRQAPGKGLEWMGGFDPEDGETIYAQKFQGRVTMTEDTSTDTAYMELSSLRSEDTAVYYCATAGLEIRWFDPWGQGTLVTVSS VL: DIVMTQSPLSLPVTPGEPASISCRSSQSLLHSNGYNYLDWYLQKPGQSPQFLIYLGSIRASGVPDRFSGSGSGTDFALTISRVEAEDVGVYYCMQALQTPRTFGQGTKVEIK ... 0.133
